All values here come from paper PMC9542353.

The reader will find Ki measurements below, all made with hCA XII (Homo sapiens).

As a guide, the following entries are already answered.
COc1cc(NC(=O)c2ccc(C)cc2)ccc1C(=O)NC(=S)Nc1ccc(S(N)(=O)=O)cc1 [Compound 12c] :: 0.226 µM
NS(=O)(=O)c1ccc(NC(=S)NC(=O)c2ccc(Br)cc2)cc1 :: 0.082 µM

Observed Ki on hCA XII (Homo sapiens) for CCOC(=O)c1ccc(NC(=S)NC(=O)c2ccccc2)cc1 [Compound 6a, Ethyl-4-(3-benzoylthioureido)benzoate] , please.
> 100 µM

Observed Ki on hCA XII (Homo sapiens) for COc1cc(NC(C)=O)ccc1C(=O)NC(=S)Nc1ccc(C(=O)O)cc1 [Compound 13a] , please.
> 100 µM

Observed Ki on hCA XII (Homo sapiens) for COc1cc(NC(=O)C(C)C)ccc1C(=O)NC(=S)Nc1ccc(C(=O)O)cc1 [Compound 13b] , please.
> 100 µM

Observed Ki on hCA XII (Homo sapiens) for `O=C(O)c1ccc(NC(=S)NC(=O)c2ccc(Cl)cc2)cc1` , please.
> 100 µM

Observed Ki on hCA XII (Homo sapiens) for CCOC(=O)c1ccc(NC(=S)NC(=O)c2ccc(NC(=O)c3ccc(C)cc3)cc2OC)cc1 [Compound 14c] , please.
> 100 µM

----------
The reader will find Ki measurements below, all made with hCA II (Homo sapiens).
METRIC NAME: Ki (nM)

COc1cc(NC(=O)c2ccc(C)cc2)ccc1C(=O)NC(=S)Nc1ccc(C(=O)O)cc1 [Compound 13c] :: 504
COc1cc(NC(=O)C(C)C)ccc1C(=O)NC(=S)Nc1ccc(C(=O)O)cc1 [Compound 13b] :: 193
COc1cc(NC(=O)C(C)C)ccc1C(=O)NC(=S)Nc1ccc(S(N)(=O)=O)cc1 [Compound 12b] :: 2770

(I) COc1cc(NC(C)=O)ccc1C(=O)NC(=S)Nc1ccc(S(N)(=O)=O)cc1 [Compound 12a]
(II) CCOC(=O)c1ccc(NC(=S)NC(=O)c2ccc(Br)cc2)cc1 [Compound 6d]
For the two items I and II , which reports the higher Ki value? Answer = label.
II

----------
METRIC NAME: melting point

As a guide, the following entries are already answered.
O=C(O)c1ccc(NC(=S)NC(=O)c2ccc(Cl)cc2)cc1 :: 232 to 240 °C
COc1cc(NC(C)=O)ccc1C(=O)NC(=S)Nc1ccc(S(N)(=O)=O)cc1 [Compound 12a] :: 225 to 227 °C

In the following, a different compound is considered.
State the recorded melting point for this entry: COc1cc(NC(C)=O)ccc1C(=O)NC(=S)Nc1ccc(C(=O)O)cc1 [Compound 13a]
245 to 247 °C

----------
The reader will find Ki measurements below, all made with hCA I (Homo sapiens).
Sequence (P00915 whole entry): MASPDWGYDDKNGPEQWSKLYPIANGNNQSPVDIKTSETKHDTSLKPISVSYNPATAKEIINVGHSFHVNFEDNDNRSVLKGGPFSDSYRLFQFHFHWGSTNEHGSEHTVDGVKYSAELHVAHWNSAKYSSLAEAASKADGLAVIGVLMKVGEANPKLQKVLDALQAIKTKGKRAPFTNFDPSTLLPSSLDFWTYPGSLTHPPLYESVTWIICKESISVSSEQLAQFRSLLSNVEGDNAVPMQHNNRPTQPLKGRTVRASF
METRIC NAME: Ki (µM)

As a guide, the following entries are already answered.
NS(=O)(=O)c1ccc(NC(=S)NC(=O)c2ccc(Cl)cc2)cc1 [Compound 4b] :: 0.0585
COc1cc(NC(=O)c2ccc(C)cc2)ccc1C(=O)NC(=S)Nc1ccc(S(N)(=O)=O)cc1 [Compound 12c] :: 0.091
O=C(O)c1ccc(NC(=S)NC(=O)c2ccccc2)cc1 [Compound 5a, 4-(3-Benzoylthioureido)benzoic acid] :: 1.5

(1) COc1cc(NC(C)=O)ccc1C(=O)NC(=S)Nc1ccc(C(=O)O)cc1 [Compound 13a]
(2) COc1cc(NC(C)=O)ccc1C(=O)NC(=S)Nc1ccc(S(N)(=O)=O)cc1 [Compound 12a]
(3) CCOC(=O)c1ccc(NC(=S)NC(=O)c2ccc(Cl)c(Cl)c2)cc1 [Compound 6c]
(4) NS(=O)(=O)c1ccc(NC(=S)NC(=O)c2ccc(Cl)c(Cl)c2)cc1 [Compound 4c]
List these items ordered by Ki, big to small. List labels; respect the requested ordering.
1, 3, 2, 4

----------
The reader will find Ki measurements below, all made with hCA II (Homo sapiens).
METRIC NAME: Ki (nM)

As a guide, the following entries are already answered.
O=C(O)c1ccc(NC(=S)NC(=O)c2ccccc2)cc1 :: 465
O=C(O)c1ccc(NC(=S)NC(=O)c2ccc(Cl)c(Cl)c2)cc1 :: 6000

(I) O=C(O)c1ccc(NC(=S)NC(=O)c2ccc(Cl)cc2)cc1
(II) COc1cc(NC(=O)c2ccc(C)cc2)ccc1C(=O)NC(=S)Nc1ccc(S(N)(=O)=O)cc1 [Compound 12c]
(III) COc1cc(NC(C)=O)ccc1C(=O)NC(=S)Nc1ccc(C(=O)O)cc1 [Compound 13a]
(IV) CCOC(=O)c1ccc(NC(=S)NC(=O)c2ccc(NC(=O)c3ccc(C)cc3)cc2OC)cc1 [Compound 14c]
Write the entries in order, lowest recorded Ki first. List labels; respect the requested ordering.
II, III, IV, I

----------
pKi: −log10 of the molar value.
The reader will find pKi measurements below, all made with UniProt:Q16790.
METRIC NAME: pKi

As a guide, the following entries are already answered.
COc1cc(NC(=O)C(C)C)ccc1C(=O)NC(=S)Nc1ccc(C(=O)O)cc1 [Compound 13b] :: 6.54
O=C(O)c1ccc(NC(=S)NC(=O)c2ccccc2)cc1 :: 5.53

(P) NS(=O)(=O)c1ccc(NC(=S)NC(=O)c2ccccc2)cc1
(Q) COc1cc(NC(=O)c2ccc(C)cc2)ccc1C(=O)NC(=S)Nc1ccc(C(=O)O)cc1 [Compound 13c]
(R) COc1cc(NC(C)=O)ccc1C(=O)NC(=S)Nc1ccc(S(N)(=O)=O)cc1 [Compound 12a]
(S) CCOC(=O)c1ccc(NC(=S)NC(=O)c2ccc(Cl)c(Cl)c2)cc1
(T) CCOC(=O)c1ccc(NC(=S)NC(=O)c2ccccc2)cc1 [Compound 6a, Ethyl-4-(3-benzoylthioureido)benzoate]
List these items ordered by pKi, big to small. List labels; respect the requested ordering.
R, P, S, Q, T

----------
pKi: −log10 of the molar value.
The reader will find pKi measurements below, all made with hCA IX (Homo sapiens).
METRIC NAME: pKi

As a guide, the following entries are already answered.
COc1cc(NC(=O)C(C)C)ccc1C(=O)NC(=S)Nc1ccc(S(N)(=O)=O)cc1 [Compound 12b] :: 5.75
COc1cc(NC(C)=O)ccc1C(=O)NC(=S)Nc1ccc(C(=O)O)cc1 [Compound 13a] :: 5.96
CCOC(=O)c1ccc(NC(=S)NC(=O)c2ccc(Cl)cc2)cc1 :: 5.85

(I) CCOC(=O)c1ccc(NC(=S)NC(=O)c2ccc(NC(=O)C(C)C)cc2OC)cc1 [Compound 14b]
(II) COc1cc(NC(=O)c2ccc(C)cc2)ccc1C(=O)NC(=S)Nc1ccc(S(N)(=O)=O)cc1 [Compound 12c]
For the two items I and II , which reports the higher pKi value? Answer = label.
II

----------
target: hCA XII (Homo sapiens, UniProt O43570); experiment: stopped flow CO2 hydrase assay, hCA XII
Sequence (O43570 25-354): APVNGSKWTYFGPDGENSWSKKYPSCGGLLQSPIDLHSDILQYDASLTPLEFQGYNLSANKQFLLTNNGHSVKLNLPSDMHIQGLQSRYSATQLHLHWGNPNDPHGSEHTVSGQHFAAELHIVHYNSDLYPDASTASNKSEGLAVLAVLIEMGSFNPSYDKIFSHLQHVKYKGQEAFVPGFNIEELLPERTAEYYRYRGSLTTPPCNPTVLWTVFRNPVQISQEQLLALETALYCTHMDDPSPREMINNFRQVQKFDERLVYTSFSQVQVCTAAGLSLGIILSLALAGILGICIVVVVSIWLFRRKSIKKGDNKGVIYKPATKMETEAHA
// reported Ki for each item listed

As a guide, the following entries are already answered.
COc1cc(NC(=O)c2ccc(C)cc2)ccc1C(=O)NC(=S)Nc1ccc(C(=O)O)cc1 [Compound 13c] :: > 100 µM
COc1cc(NC(C)=O)ccc1C(=O)NC(=S)Nc1ccc(S(N)(=O)=O)cc1 [Compound 12a] :: 0.083 µM
NS(=O)(=O)c1ccc(NC(=S)NC(=O)c2ccc(Cl)cc2)cc1 :: > 100 µM
CCOC(=O)c1ccc(NC(=S)NC(=O)c2ccc(NC(=O)C(C)C)cc2OC)cc1 [Compound 14b] :: > 100 µM
CCOC(=O)c1ccc(NC(=S)NC(=O)c2ccc(NC(C)=O)cc2OC)cc1 [Compound 14a] :: > 100 µM

State the recorded Ki for this entry: COc1cc(NC(=O)C(C)C)ccc1C(=O)NC(=S)Nc1ccc(S(N)(=O)=O)cc1 [Compound 12b]
> 100 µM

State the recorded Ki for this entry: `NS(=O)(=O)c1ccc(NC(=S)NC(=O)c2ccccc2)cc1`
0.0574 µM

State the recorded Ki for this entry: `CCOC(=O)c1ccc(NC(=S)NC(=O)c2ccc(Br)cc2)cc1`
> 100 µM

----------
biological target: UniProt P00918
pKi: −log10 of the molar value.
METRIC NAME: pKi

As a guide, the following entries are already answered.
O=C(O)c1ccc(NC(=S)NC(=O)c2ccc(Br)cc2)cc1 :: < 4.00
CCOC(=O)c1ccc(NC(=S)NC(=O)c2ccc(NC(C)=O)cc2OC)cc1 [Compound 14a] :: < 4.00

State the recorded pKi for this entry: CCOC(=O)c1ccc(NC(=S)NC(=O)c2ccc(NC(=O)C(C)C)cc2OC)cc1 [Compound 14b]
< 4.00

----------
target: hCA IX (Homo sapiens, UniProt Q16790); assay: stopped flow CO2 hydrase assay, hCA IX
METRIC NAME: Ki (nM)

CCOC(=O)c1ccc(NC(=S)NC(=O)c2ccc(NC(C)=O)cc2OC)cc1 [Compound 14a] :: 1150
CCOC(=O)c1ccc(NC(=S)NC(=O)c2ccc(NC(=O)c3ccc(C)cc3)cc2OC)cc1 [Compound 14c] :: 1370
